- Target of assay: Human M4 (Homo sapiens)
- Sequence (P08173 whole entry): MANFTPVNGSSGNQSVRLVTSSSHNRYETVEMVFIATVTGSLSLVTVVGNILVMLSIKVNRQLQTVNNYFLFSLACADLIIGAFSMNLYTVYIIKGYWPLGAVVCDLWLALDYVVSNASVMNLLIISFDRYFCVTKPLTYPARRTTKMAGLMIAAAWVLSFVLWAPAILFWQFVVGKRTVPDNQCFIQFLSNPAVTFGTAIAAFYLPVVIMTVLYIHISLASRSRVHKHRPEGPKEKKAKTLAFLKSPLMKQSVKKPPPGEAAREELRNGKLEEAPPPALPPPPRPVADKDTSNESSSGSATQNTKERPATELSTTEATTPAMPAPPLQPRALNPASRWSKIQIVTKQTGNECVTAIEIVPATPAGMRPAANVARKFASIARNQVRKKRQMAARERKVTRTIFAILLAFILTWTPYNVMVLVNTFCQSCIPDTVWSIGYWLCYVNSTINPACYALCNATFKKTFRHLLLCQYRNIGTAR
- Method: M4 cell-based functional assay (calcium mobilization)
- Design: expressed in transfected cells
- Recorded conditions: % ACh maximum at 30 μM
- Description: Human (h) and rat (r) M4 CDNAs, along with the chimeric G protein Gqi5, were transfected into Chinese hamster ovary (CHO-K1) cells purchased from the American Type Culture Collection using Lipofectamine2000. […] The high throughput assay was employed to measure receptor-induced mobilization of intracellular calcium to determine compound activity. […] After a ˜2.5 minute incubation period, a submaximal (EC20) concentration of acetylcholine was added, and the response measured. […]
Documented Emax at 30 µM across a set of compounds
Experimental endpoint: Emax at 30 µM (%)

{"columns": ["Structure smiles", "Value observed"],
 "data": [
  ["CCOC(=O)c1cc(=O)n2nc(N3CCc4nc(Br)sc4C3)c(C)cc2n1", 92],
  ["Cc1cc2nc(C(F)F)cc(=O)n2nc1N1CCc2nc(Br)sc2C1", 88],
  ["Cc1c(N2CCc3nc(C4(F)CC4)sc3C2)nc2n[nH]c(=O)n2c1C", 88]
]}
